- studySystem: PI3Kα (Homo sapiens, UniProt P42336)
- Construct: Full length p110 subunits of PI3K α, β and δ, N-terminally labeled with polyHis tag; polyHis (N)
- Sequence (P42336 whole entry): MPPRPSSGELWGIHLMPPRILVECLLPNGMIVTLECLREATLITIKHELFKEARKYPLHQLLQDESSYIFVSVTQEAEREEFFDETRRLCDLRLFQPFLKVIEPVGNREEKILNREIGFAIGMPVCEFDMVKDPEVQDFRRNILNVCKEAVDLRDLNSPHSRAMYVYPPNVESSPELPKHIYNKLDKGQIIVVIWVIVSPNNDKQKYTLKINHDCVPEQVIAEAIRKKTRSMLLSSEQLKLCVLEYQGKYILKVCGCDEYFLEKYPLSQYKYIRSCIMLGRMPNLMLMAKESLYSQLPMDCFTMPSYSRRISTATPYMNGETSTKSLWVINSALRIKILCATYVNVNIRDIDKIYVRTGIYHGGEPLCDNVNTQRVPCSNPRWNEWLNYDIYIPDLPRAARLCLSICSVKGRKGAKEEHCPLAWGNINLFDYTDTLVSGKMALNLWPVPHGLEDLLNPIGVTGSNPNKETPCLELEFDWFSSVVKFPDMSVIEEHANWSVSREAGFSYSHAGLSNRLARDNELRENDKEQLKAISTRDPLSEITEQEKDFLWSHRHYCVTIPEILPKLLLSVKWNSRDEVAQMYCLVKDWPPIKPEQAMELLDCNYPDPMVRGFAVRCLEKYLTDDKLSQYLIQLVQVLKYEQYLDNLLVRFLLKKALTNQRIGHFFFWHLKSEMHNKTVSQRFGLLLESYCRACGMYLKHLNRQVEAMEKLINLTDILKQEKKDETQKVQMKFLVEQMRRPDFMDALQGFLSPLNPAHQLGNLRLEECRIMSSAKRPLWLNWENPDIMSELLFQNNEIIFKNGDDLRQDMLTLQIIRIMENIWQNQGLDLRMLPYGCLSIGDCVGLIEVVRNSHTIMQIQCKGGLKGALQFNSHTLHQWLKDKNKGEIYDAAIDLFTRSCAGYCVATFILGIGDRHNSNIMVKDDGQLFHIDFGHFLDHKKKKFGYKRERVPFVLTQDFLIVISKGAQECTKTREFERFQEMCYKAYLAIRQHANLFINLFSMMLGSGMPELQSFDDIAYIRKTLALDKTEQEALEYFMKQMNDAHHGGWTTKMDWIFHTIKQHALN
- Sequence (P27986 whole entry partner): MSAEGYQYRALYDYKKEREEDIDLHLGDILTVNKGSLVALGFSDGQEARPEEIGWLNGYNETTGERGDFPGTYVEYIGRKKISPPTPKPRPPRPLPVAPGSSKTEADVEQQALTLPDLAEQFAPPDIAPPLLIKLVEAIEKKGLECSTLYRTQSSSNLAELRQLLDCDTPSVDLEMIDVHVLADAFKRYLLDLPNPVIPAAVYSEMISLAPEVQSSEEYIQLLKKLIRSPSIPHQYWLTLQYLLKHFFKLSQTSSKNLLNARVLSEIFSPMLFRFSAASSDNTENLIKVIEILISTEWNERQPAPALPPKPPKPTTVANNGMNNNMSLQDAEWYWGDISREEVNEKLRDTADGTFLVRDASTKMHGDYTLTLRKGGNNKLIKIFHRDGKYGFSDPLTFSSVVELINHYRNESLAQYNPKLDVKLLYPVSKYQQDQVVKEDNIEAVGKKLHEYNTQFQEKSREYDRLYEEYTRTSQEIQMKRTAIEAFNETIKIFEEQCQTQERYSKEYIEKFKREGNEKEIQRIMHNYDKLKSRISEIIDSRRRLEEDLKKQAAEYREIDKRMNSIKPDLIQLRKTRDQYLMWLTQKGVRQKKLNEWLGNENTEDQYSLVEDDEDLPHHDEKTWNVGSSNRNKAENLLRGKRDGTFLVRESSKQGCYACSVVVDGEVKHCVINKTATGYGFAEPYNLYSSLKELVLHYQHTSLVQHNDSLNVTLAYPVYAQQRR
- method: In vitro PI3K AlphaScreen assay, PI3Kα
- testParameters: PI(4,5)P2 substrate, 20 minutes at room temperature, read-out: P13Kalpha IC50 um
pIC50: −log10 of the molar value.
We begin with a simple list: items and their reported pIC50.

{"cpdSmiles": "Cc1nc(N)nc(-c2c(Nc3ccn[nH]3)nc3ccc(C(N)=O)cn23)n1", "pIC50": 6.52}
{"cpdSmiles": "COc1ccc(-c2ccc3nc(Nc4ccn[nH]4)c(-c4nc(C)nc(N)n4)n3c2)cc1CO", "pIC50": 6.89}
{"cpdSmiles": "Cc1nc(N)cc(-c2c(Nc3cc[nH]n3)nc3ccc(OCCN4CCCC4)nn23)n1", "pIC50": 6.10}
{"cpdSmiles": "Cc1nc(N)cc(-c2c(Nc3ccc4cc[nH]c4n3)nc3ccccn23)n1", "pIC50": 4.36}
{"cpdSmiles": "COCCOc1ccc2nc(Nc3cc[nH]n3)c(-c3cc(N)nc(C)n3)n2n1", "pIC50": 7.05}

====

- studySystem: PI3Kα (Homo sapiens, UniProt P42336)
- Construct: Full length p110 subunits of PI3K α, β and δ, N-terminally labeled with polyHis tag; polyHis (N)
- method: In vitro PI3K AlphaScreen assay, PI3Kα
- testParameters: PI(4,5)P2 substrate, 20 minutes at room temperature, read-out: P13Kalpha IC50 um
pIC50: −log10 of the molar value.
endpoint: pIC50

{"compound": "CC(=O)n1ccc(Nc2nc3cccnn3c2-c2cc(N)nc(C)n2)n1 [Cpd 67]", "studySystem": "PI3Kα (Homo sapiens, UniProt P42336)", "endpoint": "pIC50", "observedValue": 6.12}
{"compound": "Cc1nc(N)cc(-n2nc(C(=O)N3CCOCC3)cc2Nc2ccn[nH]2)n1 [Cpd 13]", "studySystem": "PI3Kα (Homo sapiens, UniProt P42336)", "endpoint": "pIC50", "observedValue": 5.95}
{"compound": "Cc1nc(N)cc(-c2c(Nc3ccn(-c4ccccn4)n3)nc3ccccn23)n1 [Cpd 216]", "studySystem": "PI3Kα (Homo sapiens, UniProt P42336)", "endpoint": "pIC50", "observedValue": 5.86}
{"compound": "Cc1nc(N)nc(-c2c(Nc3ccn(C)n3)nc3ccc(-c4ccc(S(C)(=O)=O)cc4)cn23)n1 [Cpd 354]", "studySystem": "PI3Kα (Homo sapiens, UniProt P42336)", "endpoint": "pIC50", "observedValue": 6.11}
